Ref: ChEMBL document CHEMBL1130793

assay-method-text: Michaelis-Menten constant was determined
Type: ADME
cond: read-out: Km app
quantity-kind: Km (µM)
Response body: numeric value in µM, unit text excluded.

smiles-representation	Km, µM
O=C(O)CCC(=O)N[C@@H](CCCC(=O)C(=O)O)C(=O)O	600

Continue with the molecule presented below.
## Input GET /values?readout=Km&item= CC(=O)N[C@@H](CC(=O)[O-])C(=O)N[C@@H](CCCC(=O)C(=O)[O-])C(=O)[O-].[Li+].[Li+].[Li+]
## Output 1570
